# System: Human immunodeficiency virus 1
# experiment_notes: Antiviral activity against HIV1 infected in human 293T cells assessed as inhibition of pseudovirus infection
# Type: functional, organism-based
# applied_conditions: Human immunodeficiency virus 1, HEK-293T
endpoint_label: pIC50
The read-out pIC50 is expressed as -log10 of concentration in moles per litre.

## Input Please give the measured pIC50 for this compound: Cc1ccnc2c1NC(=O)c1cccnc1N2C1CC1
## Output 7.85

====

# System: Human immunodeficiency virus 1
# experiment_notes: Antiviral activity against HIV1 infected in 8186 T cells
# Assay type: functional, organism-based
# applied_conditions: Human immunodeficiency virus 1, T-cell
endpoint_label: pIC50
The read-out pIC50 is expressed as -log10 of concentration in moles per litre.

## Input Notebook entry, Human immunodeficiency virus 1 assay: pIC50 of Cc1ccnc2c1NC(=O)c1cccnc1N2C1CC1 [NEVIRAPINE] = ?
## Output 7.40

====

# assay_system: UniProt:Q72547
# experiment_notes: Inhibition of RNA dependent DNA polymerase activity of HIV1 BH10 recombinant reverse transcriptase p66/p51 assessed as residual enzyme activity
pIC50: recorded values
The read-out pIC50 is expressed as -log10 of concentration in moles per litre.

O=S(=O)(Nc1n[nH]cc1Br)c1cccc2nsnc12 | 5.55

Lab note: next compound to report on.
## Input Notebook entry, UniProt:Q72547 assay: pIC50 of CCCOCCCNC(=S)Nc1cc(OC)c(Cl)cc1OC = ?
## Output 6.29

====

# assay_system: Human immunodeficiency virus type 1 reverse transcriptase (Human immunodeficiency virus 1, UniProt Q72547, Y181C)
# experiment_notes: Inhibition of RNA dependent DNA polymerase activity of HIV1 reverse transcriptase Y181C mutant expressed in Escherichia coli BL21
endpoint_label: IC50
Express the reported value numerically, then name its unit.

CCCOCCCNC(=S)Nc1cc(OC)c(Cl)cc1OC | 70 µM

Lab note: next molecule to report on.
## Input Please give the measured IC50 for this molecule: O=S(=O)(Nc1n[nH]cc1Br)c1cccc2nsnc12
## Output 20 µM

====

# assay_system: Human immunodeficiency virus type 1 reverse transcriptase (Human immunodeficiency virus 1, UniProt Q72547)
# experiment_notes: Inhibition of RNA dependent DNA polymerase activity of HIV1 BH10 recombinant reverse transcriptase p66/p51 assessed as residual enzyme activity at 616 nM using dTTP substrate by steady state kinetic assay
endpoint_label: Ki (µM)
Please reply with the bare figure in µM and do not write the unit itself.

## Input Please give the measured Ki for this molecule: CCCOCCCNC(=S)Nc1cc(OC)c(Cl)cc1OC
## Output 1.1

====

IC50: recorded values
# assay_system: Human immunodeficiency virus type 1 reverse transcriptase (Human immunodeficiency virus 1)
# experiment_notes: Inhibition of DNA dependent DNA polymerase activity of HIV1 BH10 recombinant reverse transcriptase p66/p51 assessed as residual enzyme activity
Express the reported value numerically, then name its unit.

CCCOCCCNC(=S)Nc1cc(OC)c(Cl)cc1OC | 940 nM

## Input Notebook entry, Human immunodeficiency virus type 1 reverse transcriptase (Human immunodeficiency virus 1) assay: IC50 of O=S(=O)(Nc1n[nH]cc1Br)c1cccc2nsnc12 = ?
## Output 3300 nM

====

# assay_system: Human immunodeficiency virus type 1 reverse transcriptase (Human immunodeficiency virus 1, UniProt Q72547)
# experiment_notes: Inhibition of RNA dependent DNA polymerase activity of HIV1 BH10 recombinant reverse transcriptase p66/p51 assessed as residual enzyme activity at 616 nM using rA.dT substrate by steady state kinetic assay
endpoint_label: Ki
Express the reported value numerically, then name its unit.

## Input Please give the measured Ki for this compound: CCCOCCCNC(=S)Nc1cc(OC)c(Cl)cc1OC
## Output 1.8 µM

====

# Tested on: Human immunodeficiency virus 1
# experiment_notes: Antiviral activity against HIV1 infected in human 293T cells
# Format: functional, organism-based
# applied_conditions: Human immunodeficiency virus 1, HEK-293T
endpoint_label: IC50
Express the reported value numerically, then name its unit.

## Input Please give the measured IC50 for this molecule: Cc1ccnc2c1NC(=O)c1cccnc1N2C1CC1
## Output 50 nM

====

# System: Escherichia coli
# experiment_notes: Inhibition of DNA dependent DNA polymerase activity of Escherichia coli DNA polymerase 1 Klenow fragment assessed as residual enzyme activity at 50 ug/ml relative to control
Note to self: values exactly at 60% are y. So Activity at or above 60% is y, below is n.

Solved entries (count: 5):
CCCOCCCNC(=S)Nc1ccc(Cl)cc1Cl | n
CCCOCCCNC(=S)Nc1ccc(Cl)cc1C | n
CCCOCCCNC(=S)Nc1cccc(OC)c1 | y
CCCOCCCNC(=S)Nc1cc(C)ccc1OC | y
CCCOCCCNC(=S)Nc1ccccc1OCC | y

## Input Activity >= 60% for CCCOCCCNC(=S)Nc1cccc(C(=O)OCC)c1 ?
## Output n

====

# experiment_notes: Selectivity index, ratio of inhibition of DNA dependent DNA polymerase activity of Escherichia coli DNA polymerase 1 Klenow fragment to inhibition of DNA dependent DNA polymerase activity of HIV1 BH10 recombinant reverse transcriptase p66/p51
Note to self: values exactly at 2 are Met. So Ratio at or above 2 is Met, below is Not met.

Solved entries (count: 5):
CCCOCCCNC(=S)Nc1cccc(Cl)c1C | Not met
CCCOCCCNC(=S)Nc1ccc(N(C)C)cc1 | Not met
CCCOCCCNC(=S)Nc1ccc(C(=O)OC)cc1 | Not met
CCCOCCCNC(=S)Nc1cc(C)ccc1Cl | Met
CCCCc1ccc(NC(=S)NCCCOCCC)cc1 | Met

## Input Ratio >= 2 for CCCOCCCNC(=S)Nc1cccc(C#N)c1 ?
## Output Not met

## Input Follow-up entry: CCCOCCCNC(=S)Nc1cccc(OC)c1
## Output Met

## Input Follow-up entry: CCCOCCCNC(=S)Nc1ccc(Br)c(Cl)c1
## Output Not met

====

Activity: recorded values
# Tested on: Escherichia coli
# experiment_notes: Inhibition of DNA dependent DNA polymerase activity of Escherichia coli DNA polymerase 1 Klenow fragment assessed as residual enzyme activity at 50 ug/ml relative to control
Please reply with the bare figure in % and do not write the unit itself.

CCCOCCCNC(=S)Nc1cc(F)ccc1F | 47.5
CCCOCCCNC(=S)Nc1ccc(Br)c(Cl)c1 | 1
CCCCc1ccc(NC(=S)NCCCOCCC)cc1 | 74.2
CCCOCCCNC(=S)Nc1cc(Cl)ccc1OC | 50.8
CCCOCCCNC(=S)Nc1ccc(C(=O)OC)cc1 | 2.6
CCCOCCCNC(=S)Nc1cccc(Cl)c1C | 10.8
CCCOCCCNC(=S)Nc1cc(C)ccc1Cl | 76.5
Cc1ccnc2c1NC(=O)c1cccnc1N2C1CC1 | 47.5
CCCOCCCNC(=S)Nc1ccc(Cl)c(C(F)(F)F)c1 | 2.2
CCCOCCCNC(=S)Nc1ccc(Br)cc1 | 48.4

## Input Please give the measured Activity for this compound: CCCCc1ccc(NC(=S)NCCCOCCC)c(C)c1
## Output 4.5

## Input Follow-up entry: CCCOCCCNC(=S)Nc1ccc(F)cc1Br
## Output 47.6

====

# experiment_notes: Selectivity index, ratio of inhibition of DNA dependent DNA polymerase activity of Escherichia coli DNA polymerase 1 Klenow fragment to inhibition of DNA dependent DNA polymerase activity of HIV1 BH10 recombinant reverse transcriptase p66/p51
Ratio: recorded values
Number only, no unit.

Solved entries (count: 2):
CCCOCCCNC(=S)Nc1ccc(F)cc1Br | 1.2
CCCOCCCNC(=S)Nc1ccc(Cl)c(C(F)(F)F)c1 | 0.5

## Input Please give the measured Ratio for this compound: CCCOCCCNC(=S)Nc1ccc(C(C)(C)C)cc1
## Output 0.4

## Input Follow-up entry: CCCOCCCNC(=S)Nc1ccc(Br)cc1
## Output 1.7

## Input Follow-up entry: CCCOCCCNC(=S)Nc1ccccc1Cl
## Output 1.2

## Input Follow-up entry: CCCOCCCNC(=S)Nc1cc(OC)c(Cl)cc1OC
## Output 7.4

## Input Follow-up entry: CCCCc1ccc(NC(=S)NCCCOCCC)c(C)c1
## Output 0.2

## Input Follow-up entry: CCCOCCCNC(=S)Nc1cc(C)c(C)cc1C
## Output 2.9

## Input Follow-up entry: CCCOCCCNC(=S)Nc1cc(F)ccc1F
## Output 0.6

## Input Follow-up entry: CCCOCCCNC(=S)Nc1ccc(Br)c(C)c1
## Output 0.6

====

# System: Escherichia coli
# experiment_notes: Inhibition of DNA dependent DNA polymerase activity of Escherichia coli DNA polymerase 1 Klenow fragment assessed as residual enzyme activity at 50 ug/ml relative to control
endpoint_label: Activity (%)
Please reply with the bare figure in % and do not write the unit itself.

CCCOCCCNC(=S)Nc1cc(OC)c(Cl)cc1OC | 62.2
CCCOCCCNC(=S)Nc1cccc(C#N)c1 | 75.2
CCCOCCCNC(=S)Nc1ccc(N(C)C)cc1 | 11.1
CCCOCCCNC(=S)Nc1ccc(Br)c(C)c1 | 14.4
CCCOCCCNC(=S)Nc1cc(C)c(C)cc1C | 64.4

Lab note: next compound to report on.
## Input Please give the measured Activity for this compound: CCCOCCCNC(=S)Nc1ccc(C(C)(C)C)cc1
## Output 13.8
